# system under test: Cbl-b (residues 36-427) (Homo sapiens)
# Sequence (Q13191 36-427): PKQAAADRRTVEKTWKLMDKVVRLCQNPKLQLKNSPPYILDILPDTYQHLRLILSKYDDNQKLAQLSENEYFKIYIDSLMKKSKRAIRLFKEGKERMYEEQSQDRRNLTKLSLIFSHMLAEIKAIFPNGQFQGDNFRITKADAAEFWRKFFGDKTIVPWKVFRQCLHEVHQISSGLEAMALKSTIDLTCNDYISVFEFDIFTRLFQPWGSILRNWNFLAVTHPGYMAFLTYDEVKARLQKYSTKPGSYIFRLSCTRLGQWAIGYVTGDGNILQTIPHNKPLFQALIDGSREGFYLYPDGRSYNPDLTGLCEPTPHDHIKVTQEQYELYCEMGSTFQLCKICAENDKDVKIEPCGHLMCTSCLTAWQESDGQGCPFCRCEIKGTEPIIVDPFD
pKd: −log10 of the molar value.
result type: pKd

compound="C[C@H](Cc1nncn1C)c1ccnc(N2Cc3c(cccc3C(F)(F)F)C2=O)c1 [Compound 304b]" result_type=pKd assay_value="5.52 to 6.00"
compound=C[C@H](Sc1nncn1C)c1cccc(NC(=O)c2nc(C(F)(F)F)ccc2N)c1 result_type=pKd assay_value="5.52 to 6.00"
compound=C[C@H](Sc1nncn1C)c1ccnc(NC(=O)c2cccc(OC(F)(F)F)n2)c1 result_type=pKd assay_value="5.52 to 6.00"
compound="C[C@H](Sc1nncn1C)c1ccnc(N2Cc3c(cccc3C(F)(F)F)C2=O)c1 [Compound 172a]" result_type=pKd assay_value="5.52 to 6.00"
compound=CC(C)c1cccc(C(=O)Nc2cccc([C@H](C)Sc3nncn3C)c2)c1 result_type=pKd assay_value="< 5.00"
compound=C[C@H](Sc1nncn1C)c1cccc(NC(=O)c2cc(Cl)cc(C(F)(F)F)n2)c1 result_type=pKd assay_value="6.00 to 6.52"
compound=C[C@H](Sc1nncn1C)c1cccc(NC(=O)c2nc(C(F)(F)F)cs2)c1 result_type=pKd assay_value="5.52 to 6.00"
compound="CC(Sc1nncn1C)c1cc(NC2CCOC2)nc(N2Cc3c(cccc3C(F)(F)F)C2=O)c1 (stereo not shown)" result_type=pKd assay_value="5.00 to 5.52"
compound=C[C@H](Sc1nncn1C)c1cccc(NC(=O)c2cc(C(=O)N3C[C@@H](O)C[C@H]3C)ccn2)c1 result_type=pKd assay_value="5.00 to 5.52"
compound=C[C@H](Cc1nncn1C)c1cccc(NC(=O)c2ccnc(C(F)(F)F)n2)c1 result_type=pKd assay_value="6.52 to 7.00"
compound=C[C@H](Sc1nncn1C)c1cccc(NC(=O)c2cccc(S(C)(=O)=O)n2)c1 result_type=pKd assay_value="5.00 to 5.52"
compound="Cn1cnnc1[C@H](F)[C@](C)(F)c1cccc(N2Cc3c(cc(C4CC4)cc3C(F)(F)F)C2=O)c1 [Compound 481a]" result_type=pKd assay_value="6.52 to 7.00"
compound=C[C@H](Sc1nncn1C)c1cccc(NC(=O)c2cc(C(=O)N3CC[C@H](N)C3)ccn2)c1 result_type=pKd assay_value="5.00 to 5.52"
compound=C[C@H](Sc1nncn1C)c1cccc(NC(=O)c2cc(C3CC3)cc(C(F)(F)F)n2)c1 result_type=pKd assay_value="6.52 to 7.00"
compound=C[C@H](Sc1nncn1C)c1ccnc(NC(=O)c2cc(C3CC3)cc(C(F)(F)F)n2)c1 result_type=pKd assay_value="5.52 to 6.00"
compound=C[C@H](Cc1nncn1C)c1cccc(N2Cc3c(ccnc3C(F)(F)F)C2=O)c1 result_type=pKd assay_value="6.00 to 6.52"

* * *

Each entry below carries its reported IC50.
# system under test: Cbl-b (Homo sapiens, UniProt Q13191)
# Sequence (Q13191 36-427): as above
# protocol details: Cbl-b activity assay (Cbl-b inhibition assay), TR-FRET of Cbl-b interaction with UbcH5B-Ub
# Type: biochemical
# measurement conditions: assay buffer with 100 mM NaCl, 60 nM Src kinase; read-out: Cbl-b activity IC50
result type: IC50

molecule=C[C@H](Sc1nncn1C)c1ccnc(NC(=O)c2cc(Br)cc(C(F)(F)F)n2)c1 result_type=IC50 assay_value="301 to 1000 nM"
molecule="CCNc1cc(C(C)Sc2nncn2C)cc(N2Cc3c(cccc3C(F)(F)F)C2=O)n1 (stereo not shown)" result_type=IC50 assay_value="301 to 1000 nM"
molecule=CN(c1cc2c(c(C(F)(F)F)c1)CN(c1cccc([C@@](C)(F)C(F)(F)c3nncn3C)c1)C2=O)[C@@H]1CNC[C@@H]1F result_type=IC50 assay_value="100 to 300 nM"
molecule=Cc1cc(C(=O)Nc2cccc([C@H]3C[C@H]3c3nncn3C)c2)nc(C2CC2)n1 result_type=IC50 assay_value="100 to 300 nM"

* * *

Each entry below carries its reported fold induction at 0.3 µM.
# System: T-cell
# protocol details: IL-2 secretion from T-cells co-stimulated with anti-CD3 and anti-CD28 antibody (Biological Example 2)
# Format: cell-based, human
# measurement conditions: Homo sapiens, T-cell, 0.3 μM compound; primary human total T-cells; baseline = anti-CD3/anti-CD28 stimulated cells without inhibitor; read-out: IL-2 secretion, Anti-CD3/Anti-CD28 stimulation, fold change over baseline
result type: fold induction at 0.3 µM

molecule="Cc1c[nH]nc1C[C@@H](C)c1cccc(N2Cc3c(cc(C(=O)N4CCC(O)C4)cc3C(F)(F)F)C2=O)c1 (stereo in doubt)" system_under_test=T-cell result_type="fold induction at 0.3 µM" assay_value="1.01 to 2.5"
molecule="C[C@H](Cc1nncn1C)c1cccc(N2Cc3c(cc(CN4CC(O)C(F)(F)C4)cc3C(F)(F)F)C2=O)c1 (some centres unmarked)" system_under_test=T-cell result_type="fold induction at 0.3 µM" assay_value="2.51 to 5"
molecule="Cn1cnnc1[C@H](F)[C@](C)(F)c1cccc(N2Cc3c(cc(C4CC4)cc3C(F)(F)F)C2=O)c1 [Compound 481a]" system_under_test=T-cell result_type="fold induction at 0.3 µM" assay_value="< 1"
molecule="C[C@H](c1cc2c(c(C(F)(F)F)c1)CN(c1cccc(C3([C@@H](F)c4nncn4C)COC3)c1)C2=O)N1CCC2(CC2)C1 (stereo in doubt)" system_under_test=T-cell result_type="fold induction at 0.3 µM" assay_value="> 7.5"
molecule="CC(Cc1nncn1C)c1cc(C2CCC2)cc(N2Cc3c(cccc3C(F)(F)F)C2=O)c1 (centres unmarked)" system_under_test=T-cell result_type="fold induction at 0.3 µM" assay_value="1.01 to 2.5"
molecule=C[C@H]1C=CCN1Cc1cc2c(c(C(F)(F)F)c1)CN(c1cccc(C3(Cc4nncn4C)COC3)c1)C2=O system_under_test=T-cell result_type="fold induction at 0.3 µM" assay_value="> 7.5"
molecule=Cn1cnnc1CC1(c2cccc(NC(=O)c3cc(CN4CC[C@H](F)C4)cc(C4CC4)n3)c2)COC1 system_under_test=T-cell result_type="fold induction at 0.3 µM" assay_value="> 7.5"
molecule=Cn1cnnc1CC1(c2cccc(N3Cc4c(cc(CN5CCOCC5)cc4C(F)(F)F)C3=O)c2)COC1 system_under_test=T-cell result_type="fold induction at 0.3 µM" assay_value="2.51 to 5"
molecule="CC(O)c1cc2c(c(C(F)(F)F)c1)CN(c1cccc(C3(Cc4nncn4C)COC3)c1)C2=O (centres unmarked)" system_under_test=T-cell result_type="fold induction at 0.3 µM" assay_value="1.01 to 2.5"
molecule=C[C@H]1CN(C)CCN1c1cc2c(c(C(F)(F)F)c1)CN(c1cccc(C3(Cc4nncn4C)COC3)c1)C2=O system_under_test=T-cell result_type="fold induction at 0.3 µM" assay_value="5 to 7.5"
molecule=C[C@H](Cc1nncn1C)c1cccc(N2Cc3c(cc(CN4CC[C@@H](F)C4)cc3C(F)(F)F)C2=O)c1 system_under_test=T-cell result_type="fold induction at 0.3 µM" assay_value="5 to 7.5"
molecule=Cc1cc(C(=O)Nc2cccc(-c3c(-c4nncn4C)cnn3C)c2)nc(C2CC2)n1 system_under_test=T-cell result_type="fold induction at 0.3 µM" assay_value="1.01 to 2.5"
molecule=C[C@H](Cc1nocc1C(F)(F)F)c1cccc(N2Cc3c(cc(CN4CC[C@H](F)C4)cc3C(F)(F)F)C2=O)c1 system_under_test=T-cell result_type="fold induction at 0.3 µM" assay_value="1.01 to 2.5"
molecule=Cn1cnnc1CC1(c2cccc(NC(=O)c3cc(CN4CCC4)nc(C4CC4)n3)c2)COC1 system_under_test=T-cell result_type="fold induction at 0.3 µM" assay_value="2.51 to 5"

* * *

Each entry below carries its reported pIC50.
# system under test: Cbl-b (Homo sapiens, UniProt Q13191)
# protocol details: Cbl-b inhibition assay (Cbl-b activity assay, FRET, Biological Example 1; 100 mM NaCl, 60 nM Src kinase)
# Assay type: biochemical
# measurement conditions: upper bound stated in text lists; read-out: IC50 values in the Cbl-b inhibition assay of Biological Example 1
pIC50: −log10 of the molar value.
result type: pIC50

compound="CN1CC2CCC1CN2c1cc2c(c(C(F)(F)F)c1)CN(c1cccc(C3(Cc4nncn4C)COC3)c1)C2=O (stereo not drawn)" assay_value="≥ 7.00"
compound=CN(c1cc2c(c(C(F)(F)F)c1)CN(c1cccc([C@@](C)(F)C(F)(F)c3nncn3C)c1)C2=O)[C@@H]1CNC[C@@H]1F assay_value="≥ 6.52"
compound="C[C@H](c1cc2c(c(C(F)(F)F)c1)CN(c1cccc(C3([C@H](F)c4nncn4C)COC3)c1)C2=O)N1CCC2(CC2)C1 (stereo in doubt) [Example 575]" assay_value="≥ 7.00"
compound="CCOc1cc(N2Cc3c(cc([C@@H](C)N4CC[C@H](F)C4)cc3C(F)(F)F)C2=O)cc(C2(Cc3nncn3C)COC2)c1 [Example 691a]" assay_value="≥ 7.00"
compound=Cn1cnnc1CC1(c2cccc(NC(=O)c3cc(N4CC(C(F)F)C4)nc(C4CC4)n3)c2)COC1 assay_value="≥ 7.00"
compound=CN1CCN(c2cc(C(=O)Nc3cccc(C4(Cc5nncn5C)COC4)c3)nc(C3CC3)n2)CC1 assay_value="≥ 7.00"
compound=Cn1cnnc1CC1(c2cccc(N3Cc4c(cc(CN5C6CCCC5CC6)cc4C(F)(F)F)C3=O)c2)COC1 assay_value="≥ 7.00"
compound="Cc1ccc(C(=O)Nc2cccc(C(C)C(F)(F)c3nncn3C)c2)nc1C1CC1 (stereo not drawn)" assay_value="≥ 6.30"
compound=Cc1cnc(C(=O)Nc2cccc([C@H](C)Sc3nncn3C)c2)cc1C(F)(F)F assay_value="≥ 5.00"
compound=C[C@H](Sc1nncn1C)c1cccc(NC(=O)c2cc(Cl)cc(C(F)(F)F)n2)c1 assay_value="≥ 6.30"
compound=Cn1cnnc1CC1(c2cccc(N3Cc4c(ccnc4C(F)(F)F)C3=O)c2)COC1 assay_value="≥ 7.00"
compound=C[C@H](Cc1nncn1C)c1ccnc(NC(=O)c2cccc(C(F)(F)F)n2)c1 assay_value="≥ 6.00"
compound="C[C@H](Cc1nccn1C)c1cccc(N2Cc3c(cccc3C(F)(F)F)C2=O)c1 [Compound 267a]" assay_value="≥ 5.00"
compound=C[C@H](Sc1nncn1C)c1cccc(NC(=O)c2cccc(-c3ccnn3C)c2)c1 assay_value="≥ 5.00"
compound="C[C@H](Cc1nncn1C)c1cccc(NC(=O)c2cc(C(=O)N3CCC(CO)C3)ccn2)c1 (stereo partly drawn)" assay_value="≥ 5.00"
